- test: Acute toxicity in rabbit
- setup.conditions: in vivo, topical or ocular, dermal
assay.endpoint: LD50 (mg/kg)

| smiles.notation | assay.endpoint | measured.value |
| --- | --- | --- |
| COc1cc([C@@H]2c3cc4c(cc3[C@H](O)[C@H]3COC(=O)[C@H]23)OCO4)cc(OC)c1OC | LD50 | 200 |

----------
- test: Acute toxicity in rat
- setup.conditions: in vivo, topical or ocular, dermal
- Excerpt: The acute toxicity of podophyllotoxin has been determined on various test animals and by various ways of administration.
assay.endpoint: LD50 (mg/kg)

| molecule | assay.endpoint | measured.value |
| --- | --- | --- |
| COc1cc([C@@H]2c3cc4c(cc3[C@H](O)[C@H]3COC(=O)[C@H]23)OCO4)cc(OC)c1OC [podophyllotoxin] | LD50 | 500 |

----------
- test: Acute toxicity in mouse
- setup.conditions: in vivo, iv
assay.endpoint: LD50 (mg/kg)

| smiles.notation | measured.value |
| --- | --- |
| COc1cc([C@@H]2c3cc4c(cc3[C@H](O)[C@H]3COC(=O)[C@H]23)OCO4)cc(OC)c1OC | 20 |

----------
- test: Acute toxicity in rat
- setup.conditions: in vivo, iv

| molecule | LD50 |
| --- | --- |
| COc1cc([C@@H]2c3cc4c(cc3[C@H](O)[C@H]3COC(=O)[C@H]23)OCO4)cc(OC)c1OC [podophyllotoxin] | 10 mg/kg |

----------
- test: Solubility in water
- Assay type: physicochemical
- setup.conditions: in its pure state

| smiles.notation | solubility [µg/mL] |
| --- | --- |
| COc1cc([C@@H]2c3cc4c(cc3[C@H](O)[C@H]3COC(=O)[C@H]23)OCO4)cc(OC)c1OC | 120 |
